Where do the numbers come from? From ChEMBL document CHEMBL1138783.

Give measured metabolised at 2 h for each item. Keep answers brief.
Test system: histone deacetylase (HDAC)
Assay: Percent conversion by rat liver histone deacetylase (HDAC) was determined after 2 h
Format: ADME
Conditions: read-out: Conversion
Answers are plain numbers, in %.

CC(=O)NCCCC[C@H](NC(=O)OCc1ccccc1)C(=O)Nc1ccc2c(C)cc(=O)oc2c1 87
Cc1cc(=O)oc2cc(NC(=O)[C@H](CCCCNC(=O)C(F)(F)F)NC(=O)OCc3ccccc3)ccc12 41
CC(=O)NCCCC[C@H](NC(=O)OC(C)(C)C)C(=O)Nc1ccc2c(C(F)(F)F)cc(=O)oc2c1 43
CCCC(=O)NCCCC[C@H](NC(=O)OCc1ccccc1)C(=O)Nc1ccc2c(C)cc(=O)oc2c1 1

Below: the item to evaluate.
Input CC(=O)NCCCC[C@@H](NC(=O)OCc1ccccc1)C(=O)Nc1ccc2c(C)cc(=O)oc2c1 . Output metabolised at 2 h: 9

----------
Tested on: histone deacetylase (HDAC)
Assay: Percent conversion by rat liver histone deacetylase (HDAC) was determined after 1 h
Type: ADME
Conditions: read-out: Conversion
Give measured metabolised at 1 h for each item. Keep answers brief.
One number for each entry, in %.

CC(=O)NCCCC[C@H](NC(=O)OC(C)(C)C)C(=O)Nc1ccc2c(C(F)(F)F)cc(=O)oc2c1 30
CC(=O)NCCCC[C@H](NC(=O)OCc1ccccc1)C(=O)Nc1ccc2c(C)cc(=O)oc2c1 67
CC(=O)NCCCC[C@H](NC(=O)OC(C)(C)C)C(=O)Nc1ccc2c(C)cc(=O)oc2c1 38
CC(=O)NCCCC[C@@H](NC(=O)OCc1ccccc1)C(=O)Nc1ccc2c(C)cc(=O)oc2c1 0
Cc1cc(=O)oc2cc(NC(=O)[C@H](CCCCNC(=O)C(F)(F)F)NC(=O)OCc3ccccc3)ccc12 16

Please report metabolised at 1 h for every entry that follows.
1. CC(=O)NCCCC[C@H](NC(=O)OCC1c2ccccc2-c2ccccc21)C(=O)Nc1ccc2c(C)cc(=O)oc2c1
2. CCCC(=O)NCCCC[C@H](NC(=O)OCc1ccccc1)C(=O)Nc1ccc2c(C)cc(=O)oc2c1
3. CCC(=O)NCCCC[C@H](NC(=O)OCc1ccccc1)C(=O)Nc1ccc2c(C)cc(=O)oc2c1
4. Cc1cc(=O)oc2cc(NC(=O)[C@H](CCCCNC(=O)Cc3ccccc3)NC(=O)OCc3ccccc3)ccc12

[47, 0, 20, 0]

----------
Biological target: Histone deacetylase
Assay: Inhibitory activity against rat liver Histone deacetylase with substrate 3b
Square brackets hold non-standard residues; d marks the D form. Peptide text beside a SMILES is read from it. * marks the point of attachment. Asu = N[C@@H](CCCCCC(=O)O)C(=O)O; Aib = CC(C)(N)C(=O)O; NHOH = ON*
measure-name: IC50 (nM)
Answers are plain numbers, in nM.

Worked set:
molecule	experimental-result
O=C(CCCCC[C@@H]1NC(=O)[C@H]2CCCN2C(=O)[C@H](Cc2ccccc2)NC(=O)[C@H](Cc2ccccc2)NC1=O)NO	411
CN(C)c1ccc(C(=O)NCCCCCCC(=O)NO)cc1	148
CN(C)c1ccc(C(=O)NCCCCCCCC(=O)NO)cc1	488

Please report IC50 for every entry that follows.
1. CC[C@@H](C)[C@@H]1NC(=O)[C@@H](Cc2ccc(OC)cc2)NC(=O)[C@H](CCCCCC(=O)NO)NC(=O)[C@H]2CCCN2C1=O
2. CC1(C)NC(=O)[C@H](CCCCCC(=O)NO)NC(=O)[C@H]2CCCN2C(=O)[C@H](Cc2ccccc2)NC1=O (cyclo([Aib]F[dP][Asu](NHOH)))

80.4
226
